- assay overview: folding stability dG unfold from trypsin proteolysis; higher = more stable
Class membership depends on folding stability dG unfold alone; the intervals are bottom range = under 1 kcal/mol, center range = from 1 kcal/mol up to 2 kcal/mol, top range = 2 kcal/mol and over

{"query sequence": "SAGGSAGGMVRFDPAGGRLFLDGVPVELSEVLSVESLEEEGRVRVEALLVDGSRLEFEIPKEALSAGGSAGG [r6_682_JUSTAS]", "class name": "center range"}
{"query sequence": "SAGGSAGGSAAKVISVNPETGEVVVEYPDGSVGYFKVKGGVVEEVRSSPVLPVPEDDPLFTSAGGSAGGSAG [r3_406_TrMRF]", "class name": "center range"}

stdin: Using the reported folding stability dG unfold, which band applies to SAGGSAVERLRELLKELGVEVTVERKDGKVYIRVEASPEKREKLAEALRELFGKDIEIEVLEEGEEPSAGGS [r16_514_TrROS_Hall] ?
stdout: top range

stdin: Which bin, given its folding stability dG unfold, does SAGGSMVITITFPDGSTVTIPEEELLELLKKYGIEPDESDKEKVAKEAAKIIGEEKGIPIKEVKINSAGGSA [r2_83_JUSTAS] occupy?
stdout: center range

stdin: State the band of SKGKKVLVIPATLPEAEEIAKALGLPPSLFPSSKKLVDALKEAFPENVVVVVAPAKPVTEEELKALAEGKSA [r9_74_TrMRF]
stdout: bottom range

stdin: Band assignment needed for SAGMGATLVSESEEEIDSSGVRKLTYRSPGSLLVETLYPDGTVPVYVIDPSTGKVVEERVFHVPPDVPLSAG [r14_676_JUSTAS] please.
stdout: bottom range

stdin: Lab note: sort SAGGPGAEIWFIKIPIEIEMKMKRKRENDPDGNPRPEWEMEMKIEIPIEIYPIRVRLDPDGKIKSIEFSAGG [r13_148_TrROS] into the matching folding stability dG unfold band.
stdout: top range

stdin: Which class does SAGGSMEIVKKETFTLEDGRKIEVVYDKETNKYVVKIYNKETGEEVEITVKSKEEAEEALKKLLEESAGGSA [r2_70_TrROS_Hall] fall in?
stdout: center range

stdin: For the record SAGGSAGGSAGDAEEIADEIRENMYGPDGKYVPKEVEIKEIEPPPGQLKVEIEMPPGMPISAGGSAGGSAGG [r17_519_TrROS] , report the class its folding stability dG unfold corresponds to.
stdout: center range

stdin: Lab log: SAGFSIVEVEPDEDTYTITIEYTLPNGTVKTKDLPLKAKNPVLLEISENEITIYLPDTNEVVTLPVSLISAG [r14_947_JUSTAS] — assign folding stability dG unfold category
stdout: center range

stdin: Which bin should I file SAGGSAGGSGMSPEALAIKEQVKAEHPDLRVEVKEKILPNGTLEITVTFDDGTTETYTIPIGESAGGSAGGS [r20_210_JUSTAS] under?
stdout: top range

====

- assay overview: folding stability dG unfold from chymotrypsin proteolysis; higher = more stable
attribute measured: folding stability dG unfold (kcal/mol)
Give just the numeric value; kcal/mol need not be written.

Take a look at these entries with their results.
{"query sequence": "SAGGSAGGVPEVVEEVAREVDPRIVTRVEVRVFEPPPEYRLVVVVVELRLPTERRFVPRVVRLRSAGGSAGG [r6_630_TrMRF]", "unit tag": "kcal/mol", "measured": 3.49}
{"query sequence": "SAGGSAGGGRYLVLIEFENGFPLAYVFPSPEDVVEHTRLLEERLGYPIKRIEVYKIDPNGKAYASAGGSAGG [r6_162_TrMRF]", "unit tag": "kcal/mol", "measured": 2.42}
{"query sequence": "SAGGMISKKLNPPSKEEAEKIAEEIKKKNPNYKVTMTYDPKTGTYTITITPLPKPPPDPKNFKEIIKSAGGS [r16_674_JUSTAS]", "unit tag": "kcal/mol", "measured": 1.74}

stdin: Requested field: folding stability dG unfold. Item: SAGGSAGGSAGGGSMTLTEVFVDPETGTRTVRTTTLYTLPNGTLTSTTTTTVEPLPGELSAGGSAGGSAGGS [r10_1258_JUSTAS]
stdout: 1.87
